Provenance of the data: patent US11696937B2

Tested on: Clinical isolates 07-W3-45 (VRE)
assay name: In vitro antibacterial activity (MIC) against VRE
Type: cell-based, Vancomycin-resistant Enterococcus
measurement setup: clinically isolated drug-resistant strain 07-W3-45 from Shanghai Huashan Hospital
measurement kind: MIC Clinical isolates 07-W3-45 (VRE)

Query: Please look up its MIC Clinical isolates 07-W3-45 (VRE): CNC(CC(C)C)C(=O)NC1C(=O)NC(CC(N)=O)C(=O)NC2C(=O)NC3C(=O)NC(C(=O)NC(C(=O)O)c4cc(O)cc(O)c4-c4cc3ccc4O)C(OC3CC(C)(N)C(O)C(C)O3)c3ccc(c(Cl)c3)Oc3cc2cc(c3OC2OC(CO)C(O)C(O)C2OC2CC(C)(NCc3ccc(NCc4ccccc4)cc3)C(O)C(C)O2)Oc2ccc(cc2Cl)C1O (centres unmarked)
Result: 1 µg/mL

More entries:
Query: For the molecule CNC(CC(C)C)C(=O)NC1C(=O)NC(CC(N)=O)C(=O)NC2C(=O)NC3C(=O)NC(C(=O)NC(C(=O)O)c4cc(O)cc(O)c4-c4cc3ccc4O)C(OC3CC(C)(N)C(O)C(C)O3)c3ccc(c(Cl)c3)Oc3cc2cc(c3OC2OC(CO)C(O)C(O)C2OC2CC(C)(NCc3ccc(NCCc4ccc(Cl)cc4)cc3)C(O)C(C)O2)Oc2ccc(cc2Cl)C1O (centres unmarked) , what MIC Clinical isolates 07-W3-45 (VRE) is on record?
Result: 0.5 µg/mL

====

Tested on: wild AB zebrafish
assay name: Zebrafish toxicity test
Assay type: in vivo
measurement setup: intravenous injection, 72 hours of treatment, samples in phosphate form
Protocol: A zebrafish toxicity test of the compounds in Table 1 is also tested. Randomly select wild AB zebrafish in a six-well plate, and inject each test sample at a dose of 50, 100, 150, 200, and 250 ng/tail intravenously. At the same time, a normal control group and a solvent control group (aqueous phosphoric acid) are set; During this experiment, the death of zebrafish is observed and recorded every day and the dead fish are removed. After 72 hours of treatment, the death of zebrafish is counted. […]
measurement kind: Zebrafish LD50 (ng/tail)
Give the value, in units of ng/tail, as a plain number.

Query: I would be grateful if you could share the reported Zebrafish LD50 for CNC(CC(C)C)C(=O)NC1C(=O)NC(CC(N)=O)C(=O)NC2C(=O)NC3C(=O)NC(C(=O)NC(C(=O)O)c4cc(O)cc(O)c4-c4cc3ccc4O)C(OC3CC(C)(N)C(O)C(C)O3)c3ccc(c(Cl)c3)Oc3cc2cc(c3OC2OC(CO)C(O)C(O)C2OC2CC(C)(NCc3ccc(SCc4ccc(Cl)cc4)cc3)C(O)C(C)O2)Oc2ccc(cc2Cl)C1O (stereo not drawn) .
Result: 76

Query: Requested field: Zebrafish LD50. Item: CN[C@H](CC(C)C)C(=O)N[C@H]1C(=O)N[C@@H](CC(N)=O)C(=O)N[C@H]2C(=O)N[C@H]3C(=O)N[C@H](C(=O)N[C@H](C(=O)O)c4cc(O)cc(O)c4-c4cc3ccc4O)[C@H](O[C@H]3C[C@](C)(N)[C@@H](O)[C@H](C)O3)c3ccc(c(Cl)c3)Oc3cc2cc(c3O[C@@H]2O[C@H](CO)[C@@H](O)[C@H](O)[C@H]2O[C@H]2C[C@](C)(NCc3ccc(-c4ccc(Cl)cc4)cc3)[C@@H](O)[C@H](C)O2)Oc2ccc(cc2Cl)[C@H]1O [Orivancin, oritavancin, reference compound]
Result: 89.4

Query: Item CNC(CC(C)C)C(=O)NC1C(=O)NC(CC(N)=O)C(=O)NC2C(=O)NC3C(=O)NC(C(=O)NC(C(=O)O)c4cc(O)cc(O)c4-c4cc3ccc4O)C(OC3CC(C)(N)C(O)C(C)O3)c3ccc(c(Cl)c3)Oc3cc2cc(c3OC2OC(CO)C(O)C(O)C2OC2CC(C)(NCc3ccc(OCCc4ccc(F)cc4)cc3)C(O)C(C)O2)Oc2ccc(cc2Cl)C1O (stereo not drawn) has what recorded Zebrafish LD50?
Result: 97

Query: Give the measured Zebrafish LD50 of CNC(CC(C)C)C(=O)NC1C(=O)NC(CC(N)=O)C(=O)NC2C(=O)NC3C(=O)NC(C(=O)NC(C(=O)O)c4cc(O)cc(O)c4-c4cc3ccc4O)C(OC3CC(C)(N)C(O)C(C)O3)c3ccc(c(Cl)c3)Oc3cc2cc(c3OC2OC(CO)C(O)C(O)C2OC2CC(C)(NCc3ccc(OCCCc4ccccc4)cc3)C(O)C(C)O2)Oc2ccc(cc2Cl)C1O (stereo not drawn) .
Result: 123

Query: So what does the record say about Zebrafish LD50 for CNC(CC(C)C)C(=O)NC1C(=O)NC(CC(N)=O)C(=O)NC2C(=O)NC3C(=O)NC(C(=O)NC(C(=O)O)c4cc(O)cc(O)c4-c4cc3ccc4O)C(OC3CC(C)(N)C(O)C(C)O3)c3ccc(c(Cl)c3)Oc3cc2cc(c3OC2OC(CO)C(O)C(O)C2OC2CC(C)(NCc3ccc(OCCc4ccc(Br)cc4)cc3)C(O)C(C)O2)Oc2ccc(cc2Cl)C1O (stereo not drawn) ?
Result: 129

Consider the record given below.
Query: So what's the measured Zebrafish LD50 for this one? CNC(CC(C)C)C(=O)NC1C(=O)NC(CC(N)=O)C(=O)NC2C(=O)NC3C(=O)NC(C(=O)NC(C(=O)O)c4cc(O)cc(O)c4-c4cc3ccc4O)C(OC3CC(C)(N)C(O)C(C)O3)c3ccc(c(Cl)c3)Oc3cc2cc(c3OC2OC(CO)C(O)C(O)C2OC2CC(C)(NCc3ccc(OCCc4ccc(C)cc4)cc3)C(O)C(C)O2)Oc2ccc(cc2Cl)C1O (stereo not drawn)
Result: 121

====

Property: Zebrafish LD50; scope: individual compounds
Test system: wild AB zebrafish
assay name: Zebrafish toxicity test
Type: in vivo
measurement setup: intravenous injection, 72 hours of treatment, samples in phosphate form
Write it as a number; the unit ng/tail goes unstated.

Field: example entries. Status: answers known.
Query: Report Zebrafish LD50 for CNC(CC(C)C)C(=O)NC1C(=O)NC(CC(N)=O)C(=O)NC2C(=O)NC3C(=O)NC(C(=O)NC(C(=O)O)c4cc(O)cc(O)c4-c4cc3ccc4O)C(OC3CC(C)(N)C(O)C(C)O3)c3ccc(c(Cl)c3)Oc3cc2cc(c3OC2OC(CO)C(O)C(O)C2OC2CC(C)(NCc3ccc(NCCc4ccc(OC)cc4)cc3)C(O)C(C)O2)Oc2ccc(cc2Cl)C1O (stereo not shown) please.
Result: 192

Query: Could you tell me which Zebrafish LD50 is on file for CNC(CC(C)C)C(=O)NC1C(=O)NC(CC(N)=O)C(=O)NC2C(=O)NC3C(=O)NC(C(=O)NC(C(=O)O)c4cc(O)cc(O)c4-c4cc3ccc4O)C(OC3CC(C)(N)C(O)C(C)O3)c3ccc(c(Cl)c3)Oc3cc2cc(c3OC2OC(CO)C(O)C(O)C2OC2CC(C)(NCc3ccc(SCc4ccccc4)cc3)C(O)C(C)O2)Oc2ccc(cc2Cl)C1O (stereo not shown) ?
Result: 82

Query: // lookup Zebrafish LD50 for CNC(CC(C)C)C(=O)NC1C(=O)NC(CC(N)=O)C(=O)NC2C(=O)NC3C(=O)NC(C(=O)NC(C(=O)O)c4cc(O)cc(O)c4-c4cc3ccc4O)C(OC3CC(C)(N)C(O)C(C)O3)c3ccc(c(Cl)c3)Oc3cc2cc(c3OC2OC(CO)C(O)C(O)C2OC2CC(C)(NCc3ccc(OCc4ccccc4)cc3)C(O)C(C)O2)Oc2ccc(cc2Cl)C1O (stereo not shown)
Result: 139

Query: Return reported Zebrafish LD50; argument: CNC(CC(C)C)C(=O)NC1C(=O)NC(CC(N)=O)C(=O)NC2C(=O)NC3C(=O)NC(C(=O)NC(C(=O)O)c4cc(O)cc(O)c4-c4cc3ccc4O)C(OC3CC(C)(N)C(O)C(C)O3)c3ccc(c(Cl)c3)Oc3cc2cc(c3OC2OC(CO)C(O)C(O)C2OC2CC(C)(NCc3ccc(NCCc4ccccc4)cc3)C(O)C(C)O2)Oc2ccc(cc2Cl)C1O (stereo not shown)
Result: 189

Query: # get_value(readout='Zebrafish LD50', item= CNC(CC(C)C)C(=O)NC1C(=O)NC(CC(N)=O)C(=O)NC2C(=O)NC3C(=O)NC(C(=O)NC(C(=O)O)c4cc(O)cc(O)c4-c4cc3ccc4O)C(OC3CC(C)(N)C(O)C(C)O3)c3ccc(c(Cl)c3)Oc3cc2cc(c3OC2OC(CO)C(O)C(O)C2OC2CC(C)(NCc3ccc(SCCc4ccc(Cl)cc4)cc3)C(O)C(C)O2)Oc2ccc(cc2Cl)C1O (stereo not shown) )
Result: 72

Further cases:
Query: Which Zebrafish LD50 value belongs to CNC(CC(C)C)C(=O)NC1C(=O)NC(CC(N)=O)C(=O)NC2C(=O)NC3C(=O)NC(C(=O)NC(C(=O)O)c4cc(O)cc(O)c4-c4cc3ccc4O)C(OC3CC(C)(N)C(O)C(C)O3)c3ccc(c(Cl)c3)Oc3cc2cc(c3OC2OC(CO)C(O)C(O)C2OC2CC(C)(NCc3ccc(OCCCc4ccc(Cl)cc4)cc3)C(O)C(C)O2)Oc2ccc(cc2Cl)C1O (stereo not shown) ?
Result: 164

Query: Field request: Zebrafish LD50 | item: CNC(CC(C)C)C(=O)NC1C(=O)NC(CC(N)=O)C(=O)NC2C(=O)NC3C(=O)NC(C(=O)NC(C(=O)O)c4cc(O)cc(O)c4-c4cc3ccc4O)C(OC3CC(C)(N)C(O)C(C)O3)c3ccc(c(Cl)c3)Oc3cc2cc(c3OC2OC(CO)C(O)C(O)C2OC2CC(C)(NCc3ccc(NCCc4ccc(Cl)cc4)cc3)C(O)C(C)O2)Oc2ccc(cc2Cl)C1O (stereo not shown)
Result: 102
